assayed_target: HIV-1 protease (Human immunodeficiency virus type 1 group M subtype B, UniProt P04585)
Construct: The protease (or proteinase), consisting of only 99 amino acids, is among the smallest enzymes known
experiment_notes: In vitro HIV protease inhibitory assay (HIV Protease FITC Assay)
Assay type: biochemical
test_conditions: HIV-1 Dose 3.700 uM; read-out: HIV-1 Protease % Inhib
Note to self: values exactly at 60% are yes (1). So inhibition at 3.7 µM at or above 60% is yes (1), below is no (0).

Req: // inclusive: inhibition at 3.7 µM at least 60%? input: CCC(Cc1ccco1)c1cc(O)c(C(c2ccccc2)C2CC2)c(=O)o1 (stereo not drawn) [Example 59]
Resp: yes (1)

Req: Reported inhibition at 3.7 µM reaches at least 60% for CCC(C1=C(O)CC2(CCC(=O)CC2)OC1=O)c1ccccc1 (stereo not drawn) [Example 115] ?
Resp: no (0)

Req: Reported inhibition at 3.7 µM at or above 60%? CCC(c1ccccc1)c1c(O)c(Br)c(CCc2ccccc2)oc1=O (stereo not drawn) [Example 105]
Resp: yes (1)

Req: Check if inhibition at 3.7 µM >= 60% (inclusive). Item: CCC(Cc1ccccc1)c1cc(O)c(C(c2cccc(NC(=O)OCc3ccccc3)c2)C2CC2)c(=O)o1 (stereo not drawn) [Example 36]
Resp: no (0)

Req: Kindly determine if inhibition at 3.7 µM recorded for CCC(CC)c1oc(=O)c(C(c2ccccc2)C2CC2)c(O)c1CCOCCOC (stereo not drawn) [Example 110] is above or exactly 60%.
Resp: no (0)

Req: // inclusive: inhibition at 3.7 µM at least 60%? input: CCC(CC1CCOCC1)c1cc(O)c(C(c2ccccc2)C2CC2)c(=O)o1 (stereo not drawn) [Example 58]
Resp: yes (1)

Req: Is inhibition at 3.7 µM at least 60%? Consider COCCOCCOCCCc1cc(O)c(C(c2ccccc2)C2CC2)c(=O)o1 (stereo not drawn) [Example 108]
Resp: no (0)

Req: Determine whether measured inhibition at 3.7 µM meets or exceeds 60% for O=c1oc(CCCCl)cc(O)c1C(c1ccccc1)C1CC1 (stereo not drawn) [Example 53]
Resp: yes (1)

====

assayed_target: HIV-1 protease (Human immunodeficiency virus type 1 group M subtype B, UniProt P04585)
Construct: The protease (or proteinase), consisting of only 99 amino acids, is among the smallest enzymes known
experiment_notes: In vitro HIV protease inhibitory assay (HIV Protease FITC Assay)
Assay type: biochemical
test_conditions: read-out: HIV-1 Protease % Inhib
Would you mind telling me the reported inhibition at 30 µM of each entry?
Give just the numeric value; % need not be written.

Req: Note down inhibition at 30 µM recorded for CCC(C1=C(O)CC2(CCCCCCC2)OC1=O)c1ccccc1 (centres unmarked)
Resp: 81

Req: Supply measured inhibition at 30 µM of CCC(Cc1ccccc1)c1cc(O)c(C(c2cccc(NS(=O)(=O)c3ccc(Cl)cc3)c2)C2CC2)c(=O)o1 (centres unmarked) in your reply.
Resp: 105

Req: Please indicate inhibition at 30 µM recorded for CCC(Cc1ccccc1)c1cc(O)c(C(c2cccc(NC(=O)[C@H](Cc3c[nH]cn3)NC(=O)OC(C)(C)C)c2)C2CC2)c(=O)o1 (some centres unmarked)
Resp: 98.3

Req: Quickly give me recorded inhibition at 30 µM for CCCC1(CCc2ccccc2)CC(O)=C(C(CC)c2ccccc2)C(=O)O1 (centres unmarked)
Resp: 105

Req: In one line, give reported inhibition at 30 µM of the entry CCCC1(CCc2ccccc2)CC(O)=C(C(/C=C/c2ccccc2)c2ccccc2)C(=O)O1 (centres unmarked) .
Resp: 93
